- assay: Tissue half-life (t1/2) and Cmax in plasma, brain, kidney and liver after oral administration to CD-1 mice
- Type: in vivo, mouse
- settings: male, mouse, plasma t1/2, 30 mg/kg oral gavage (PO), read-out: Half-Lives (h) Plasma (converted)
Label condition met when half-life is strictly below 6 h; otherwise label condition not met.

Worked examples, 5 molecules total:
# molecule, groupLabel
data = [
    ("COc1ccc(CCn2cnc3cc(N/C(=N/C4C[C@@H]5C[C@H]([C@@H]4C)C5(C)C)N4CC(C)CC(C)C4)ccc3c2=O)c(F)c1 (some centres unmarked) [Example 274]", "condition met"),
    ("COc1ccc(CCn2c(NC3CC3)nc3cc(NC(=N[C@H]4C[C@H]5C[C@@H]([C@@H]4C)C5(C)C)N4CC(=O)N[C@@H](C)C4)ccc3c2=O)c(F)c1 [Example 224]", "condition met"),
    ("COc1ccc(CCn2c(-c3ncc[nH]3)nc3cc(NC(=N[C@H]4C[C@H]5C[C@@H]([C@@H]4C)C5(C)C)N4CCN[C@@H](CF)C4)ccc3c2=O)c(F)c1 [Example 255]", "condition met"),
    ("COc1ccc(CCn2c(-c3cnccn3)nc3cc(NC(=N[C@H]4C[C@H]5C[C@@H]([C@@H]4C)C5(C)C)N4CCN[C@@H](CF)C4)ccc3c2=O)c(F)c1 [Example 251]", "condition met"),
    ("COc1ccc(CCn2c(-c3cccnc3)nc3cc(NC(=N[C@H]4C[C@H]5C[C@@H]([C@@H]4C)C5(C)C)N4CCN[C@@H](C(F)F)C4)ccc3c2=O)c(F)c1 [Example 220]", "condition met"),
]

Input line: Criterion: half-life strictly below 6 h. Is it met by COc1ccc(CCn2c(-c3cccnc3)nc3cc(N/C(=N/[C@H]4C[C@@H]5C[C@H]([C@@H]4C)C5(C)C)N4C[C@@H](C)N(O)[C@@H](C)C4)ccc3c2=O)c(F)c1 [Example 296] ?
Output line: condition met

Input line: Lab note: confirm whether the reported half-life for this molecule is below 6 h, equality not counting. molecule: COc1ccc(CCn2c(-c3cccnc3)nc3cc(NC(=N[C@H]4C[C@H]5C[C@@H]([C@@H]4C)C5(C)C)N4CC(=O)N[C@@H](C)C4)ccc3c2=O)c(F)c1 [Example 216]
Output line: condition met

Input line: Record C[C@@H]1[C@@H](N=C(Nc2ccc3c(=O)n(CCc4ccc(Cl)cc4)c(-c4cnccn4)nc3c2)N2CC(=O)N[C@@H](C)C2)C[C@H]2C[C@@H]1C2(C)C [Example 222] : is its half-life strictly below 6 h?
Output line: condition met

====

- assay: Tissue half-life (t1/2) and Cmax in plasma, brain, kidney and liver after oral administration to CD-1 mice
- Assay type: in vivo, mouse
- settings: male, mouse, liver t1/2, 30 mg/kg oral gavage (PO), read-out: Half-Lives (h) Liver (converted)
measuredAttribute: half-life (h)
Give a bare numeral; the unit h is implied.

Worked cases, answers included:
# smilesStructure, half-life, h
records = [
    ("COc1ccc(CCn2c(-c3cccnc3)nc3cc(NC(=N[C@H]4C[C@H]5C[C@@H]([C@@H]4C)C5(C)C)N4CCN[C@@H](CF)C4)ccc3c2=O)c(F)c1", 6.2),
    ("COc1ccc(CCn2c(N3CCOCC3)nc3cc(NC(=N[C@H]4C[C@H]5C[C@@H]([C@@H]4C)C5(C)C)N4CCN[C@@H](CF)C4)ccc3c2=O)c(F)c1", 6.9),
]

Then this compound:
Input line: Return half-life (reported value) for this compound: COc1ccc(CCn2c(-c3nccs3)nc3cc(NC(=N[C@H]4C[C@H]5C[C@@H]([C@@H]4C)C5(C)C)N4CCN[C@@H](CF)C4)ccc3c2=O)c(F)c1
Output line: 20

====

- assay: Tissue half-life (t1/2) and Cmax in plasma, brain, kidney and liver after oral administration to CD-1 mice
- Format: in vivo, mouse
- settings: male, mouse, plasma t1/2, 30 mg/kg oral gavage (PO), read-out: Half-Lives (h) Plasma (converted)
measuredAttribute: log10 half-life (log10 of the value in h)
Recorded half-life (log10, h)

Examples from the recorded data:
# compound, recordedResult
rows = [
    ("C[C@@H]1[C@@H](N=C(Nc2ccc3c(=O)n(CCc4ccc(F)cc4)c(CF)nc3c2)N2CCN[C@@H](CF)C2)C[C@H]2C[C@@H]1C2(C)C [Example 257]", 1.30),
    ("C[C@@H]1[C@@H](N=C(Nc2ccc3c(=O)n(CCc4ccc(F)cc4)c(-c4cnccn4)nc3c2)N2CC(=O)N[C@@H](C)C2)C[C@H]2C[C@@H]1C2(C)C [Example 218]", 0.34),
    ("C[C@@H]1C(/N=C(/Nc2ccc3c(=O)n(CCc4ccc(Cl)cc4Cl)c(-c4cnccn4)nc3c2)N2CC(=O)N[C@@H](C)C2)C[C@H]2C[C@@H]1C2(C)C (stereo partly drawn) [Example 229]", 0.95),
    ("C[C@@H]1[C@@H](N=C(Nc2ccc3c(=O)n(CCc4ccc(Cl)cc4)c(-c4cnccn4)nc3c2)N2CCN[C@@H](C(F)F)C2)C[C@H]2C[C@@H]1C2(C)C [Example 235]", 0.67),
    ("COc1ccc(CCn2c(N3CCOCC3)nc3cc(NC(=N[C@H]4C[C@H]5C[C@@H]([C@@H]4C)C5(C)C)N4CCN[C@@H](CF)C4)ccc3c2=O)c(F)c1 [Example 253]", 0.86),
    ("COc1ccc(CCn2cnc3cc(N/C(=N/[C@H]4C[C@@H]5C[C@H]([C@@H]4C)C5(C)C)N4CCC[C@H]4CO)ccc3c2=O)c(F)c1 [Example 281]", 0.72),
    ("COc1ccc(CCn2cnc3cc(N/C(=N/[C@H]4C[C@@H]5C[C@H]([C@@H]4C)C5(C)C)N(C)CCO)ccc3c2=O)c(F)c1 [Example 288]", 0.04),
    ("C[C@@H]1[C@@H](/N=C(/Nc2ccc3c(=O)n(CCc4ccc(Cl)cc4Cl)cnc3c2)N2CCNC(=O)C2)C[C@@H]2C[C@H]1C2(C)C [Example 260]", 0.86),
]

We next turn to a different compound, shown below.
Input line: Look up and report measured log10 half-life for this entry: COc1ccc(CCn2c(-c3cccnc3)nc3cc(N/C(=N/[C@H]4C[C@@H]5C[C@H]([C@@H]4C)C5(C)C)N4C[C@@H](C)N(C#N)[C@@H](C)C4)ccc3c2=O)c(F)c1 [Example 295]
Output line: 0.52

====

- assay: Tissue half-life (t1/2) and Cmax in plasma, brain, kidney and liver after oral administration to CD-1 mice
- Assay type: in vivo, mouse
- settings: male, mouse, liver t1/2, 30 mg/kg oral gavage (PO), read-out: Half-Lives (h) Liver (converted)
measuredAttribute: half-life

# molecule, half-life
data = [
    ("COc1ccc(CCn2c(-c3nnc[nH]3)nc3cc(NC(=N[C@H]4C[C@H]5C[C@@H]([C@@H]4C)C5(C)C)N4CCN[C@@H](CF)C4)ccc3c2=O)c(F)c1", "16 h"),
    ("COc1ccc(CCn2c(-c3cnccn3)nc3cc(NC(=N[C@H]4C[C@H]5C[C@@H]([C@@H]4C)C5(C)C)N4CCN[C@@H](CF)C4)ccc3c2=O)c(F)c1", "6.8 h"),
]

Input line: For C[C@@H]1[C@@H](N=C(Nc2ccc3c(=O)n(CCc4ccc(Br)cc4)c(-c4cccnc4)nc3c2)N2CC(=O)N[C@@H](C)C2)C[C@H]2C[C@@H]1C2(C)C , write its half-life.
Output line: 5.9 h

Input line: Please report the measured half-life for C[C@@H]1[C@@H](N=C(Nc2ccc3c(=O)n(CCc4ccc(Cl)cc4)c(-c4c[nH]c5ccccc45)nc3c2)N2CC(=O)N[C@@H](C)C2)C[C@H]2C[C@@H]1C2(C)C
Output line: 4.2 h

Input line: Query half-life for COc1ccc(CCn2cnc3cc(N/C(=N/C4C[C@@H]5C[C@H]([C@@H]4C)C5(C)C)N4CC(C)CC(C)C4)ccc3c2=O)c(F)c1 (some centres unmarked)
Output line: 2.3 h

====

- assay: Tissue half-life (t1/2) and Cmax in plasma, brain, kidney and liver after oral administration to CD-1 mice
- Format: in vivo, mouse
- settings: male, mouse, brain t1/2, 30 mg/kg oral gavage (PO), read-out: Half-Lives (h) Brain (converted)
measuredAttribute: half-life (h)
Answer with a number only, understood to be in h.

Study these solved cases before continuing.
# smilesStructure, measuredAttribute, unitDescriptor, recordedResult
rows = [
    ("COc1ccc(CCn2c(-c3nccs3)nc3cc(NC(=N[C@H]4C[C@H]5C[C@@H]([C@@H]4C)C5(C)C)N4CCN[C@@H](CF)C4)ccc3c2=O)c(F)c1", "half-life", "h", 11),
    ("COc1ccc(CCn2c(-c3cccnc3)nc3cc(NC(=N[C@H]4C[C@H]5C[C@@H]([C@@H]4C)C5(C)C)N4CCN[C@@H](C(F)F)C4)ccc3c2=O)c(F)c1", "half-life", "h", 3.1),
    ("COc1ccc(CCn2c(N3CCOCC3)nc3cc(NC(=N[C@H]4C[C@H]5C[C@@H]([C@@H]4C)C5(C)C)N4CCN[C@@H](CF)C4)ccc3c2=O)c(F)c1", "half-life", "h", 27),
    ("C[C@@H]1[C@@H](N=C(Nc2ccc3c(=O)n(CCc4ccc(F)cc4)c(CF)nc3c2)N2CCN[C@@H](CF)C2)C[C@H]2C[C@@H]1C2(C)C", "half-life", "h", 12),
    ("COc1ccc(CCn2c(-c3cnccn3)nc3cc(NC(=N[C@H]4C[C@H]5C[C@@H]([C@@H]4C)C5(C)C)N4CCN[C@@H](CF)C4)ccc3c2=O)c(F)c1", "half-life", "h", 5.4),
]

Input line: Output half-life of COc1ccc(CCn2c(-c3cccnc3)nc3cc(NC(=N[C@H]4C[C@H]5C[C@@H]([C@@H]4C)C5(C)C)N4CC(=O)N[C@@H](C)C4)ccc3c2=O)c(F)c1
Output line: 14

Input line: Fill in reported half-life for this entry: COc1ccc(CCn2c(-c3cnccn3)nc3cc(NC(=N[C@H]4C[C@H]5C[C@@H]([C@@H]4C)C5(C)C)N4CCN[C@@H](C(F)F)C4)ccc3c2=O)c(F)c1
Output line: 2.6

Input line: Provide measured half-life value, entry: COc1ccc(CCn2c(NC3CC3)nc3cc(NC(=N[C@H]4C[C@H]5C[C@@H]([C@@H]4C)C5(C)C)N4CC(=O)N[C@@H](C)C4)ccc3c2=O)c(F)c1
Output line: 10

Input line: Output measured half-life for this item: COc1ccc(CCn2c(-c3ncc[nH]3)nc3cc(NC(=N[C@H]4C[C@H]5C[C@@H]([C@@H]4C)C5(C)C)N4CCN[C@@H](CF)C4)ccc3c2=O)c(F)c1
Output line: 25

Input line: Give half-life for the following compound: C[C@@H]1[C@@H](N=C(Nc2ccc3c(=O)n(CCc4ccc(Br)cc4)c(-c4cnccn4)nc3c2)N2CCN[C@@H](C(F)F)C2)C[C@H]2C[C@@H]1C2(C)C
Output line: 15

Input line: Hello, please tell me recorded half-life for this one: COc1ccc(CCn2c(-c3cccnc3)nc3cc(N/C(=N/[C@H]4C[C@@H]5C[C@H]([C@@H]4C)C5(C)C)N4C[C@@H](C)N(C#N)[C@@H](C)C4)ccc3c2=O)c(F)c1
Output line: 4.9

Recorded values, source patent US7368453B2.
